# Stated Conditions: in acetophenone, 307.15 K
Endpoint: solubility (mole fraction)

Prompt line: Need solubility (mole fraction) of `Cn1cc[n+](CCC[n+]2ccn(C)c2)c1.F[P-](F)(F)(F)(F)F.F[P-](F)(F)(F)(F)F` , thanks.
Response line: 0.000619

----------
# Stated Conditions: in water, 293.15 K
Endpoint: solubility (mole fraction)
Give your answer as a number; write no unit.

Prompt line: Need solubility (mole fraction) of `Cn1cc[n+](CCC[n+]2ccn(C)c2)c1.F[P-](F)(F)(F)(F)F.F[P-](F)(F)(F)(F)F` , thanks.
Response line: 0.000102

----------
# Stated Conditions: in acetone, 310.15 K
Endpoint: solubility (mole fraction)
Give your answer as a number; write no unit.

Prompt line: Need solubility (mole fraction) of `Cn1cc[n+](CCC[n+]2ccn(C)c2)c1.F[P-](F)(F)(F)(F)F.F[P-](F)(F)(F)(F)F` , thanks.
Response line: 0.0605

----------
# Stated Conditions: in acetophenone, 328.15 K
Endpoint: solubility (mole fraction)

Prompt line: Need solubility (mole fraction) of `Cn1cc[n+](CCC[n+]2ccn(C)c2)c1.F[P-](F)(F)(F)(F)F.F[P-](F)(F)(F)(F)F` , thanks.
Response line: 0.000899

----------
# Stated Conditions: in acetylacetone, 307.85 K
Endpoint: solubility (mole fraction)
Give your answer as a number; write no unit.

Prompt line: Need solubility (mole fraction) of `Cn1cc[n+](CCC[n+]2ccn(C)c2)c1.F[P-](F)(F)(F)(F)F.F[P-](F)(F)(F)(F)F` , thanks.
Response line: 0.00241

----------
# Stated Conditions: in acetylacetone, 323.15 K
Endpoint: solubility (mole fraction)

Prompt line: Need solubility (mole fraction) of `Cn1cc[n+](CCC[n+]2ccn(C)c2)c1.F[P-](F)(F)(F)(F)F.F[P-](F)(F)(F)(F)F` , thanks.
Response line: 0.00532

----------
# Stated Conditions: in water, 289.15 K
Endpoint: solubility (mole fraction)
Give your answer as a number; write no unit.

Prompt line: Need solubility (mole fraction) of `Cn1cc[n+](CCC[n+]2ccn(C)c2)c1.F[P-](F)(F)(F)(F)F.F[P-](F)(F)(F)(F)F` , thanks.
Response line: 7.7e-05

----------
# Stated Conditions: in water, 327.15 K
Endpoint: solubility (mole fraction)
Give your answer as a number; write no unit.

Prompt line: Need solubility (mole fraction) of `Cn1cc[n+](CCC[n+]2ccn(C)c2)c1.F[P-](F)(F)(F)(F)F.F[P-](F)(F)(F)(F)F` , thanks.
Response line: 0.00078

----------
# Stated Conditions: in 2-butanone, 313.25 K
Endpoint: solubility (mole fraction)
Give your answer as a number; write no unit.

Prompt line: Need solubility (mole fraction) of `Cn1cc[n+](CCC[n+]2ccn(C)c2)c1.F[P-](F)(F)(F)(F)F.F[P-](F)(F)(F)(F)F` , thanks.
Response line: 0.00598

----------
# Stated Conditions: in acetophenone, 302.15 K
Endpoint: solubility (mole fraction)
Give your answer as a number; write no unit.

Prompt line: Need solubility (mole fraction) of `Cn1cc[n+](CCC[n+]2ccn(C)c2)c1.F[P-](F)(F)(F)(F)F.F[P-](F)(F)(F)(F)F` , thanks.
Response line: 0.00056

----------
# Stated Conditions: in acetylacetone, 293.15 K
Endpoint: solubility (mole fraction)
Give your answer as a number; write no unit.

Prompt line: Need solubility (mole fraction) of `Cn1cc[n+](CCC[n+]2ccn(C)c2)c1.F[P-](F)(F)(F)(F)F.F[P-](F)(F)(F)(F)F` , thanks.
Response line: 0.000876

----------
# Stated Conditions: in cyclohexanone, 328.15 K
Endpoint: solubility (mole fraction)
Give your answer as a number; write no unit.

Prompt line: Need solubility (mole fraction) of `Cn1cc[n+](CCC[n+]2ccn(C)c2)c1.F[P-](F)(F)(F)(F)F.F[P-](F)(F)(F)(F)F` , thanks.
Response line: 0.00181

----------
# Stated Conditions: in acetylacetone, 313.15 K
Endpoint: solubility (mole fraction)
Give your answer as a number; write no unit.

Prompt line: Need solubility (mole fraction) of `Cn1cc[n+](CCC[n+]2ccn(C)c2)c1.F[P-](F)(F)(F)(F)F.F[P-](F)(F)(F)(F)F` , thanks.
Response line: 0.00325

----------
# Stated Conditions: in cyclohexanone, 299.15 K
Endpoint: solubility (mole fraction)

Prompt line: Need solubility (mole fraction) of `Cn1cc[n+](CCC[n+]2ccn(C)c2)c1.F[P-](F)(F)(F)(F)F.F[P-](F)(F)(F)(F)F` , thanks.
Response line: 0.000331

----------
# Stated Conditions: in acetylacetone, 288.55 K
Endpoint: solubility (mole fraction)
Give your answer as a number; write no unit.

Prompt line: Need solubility (mole fraction) of `Cn1cc[n+](CCC[n+]2ccn(C)c2)c1.F[P-](F)(F)(F)(F)F.F[P-](F)(F)(F)(F)F` , thanks.
Response line: 0.000598

----------
# Stated Conditions: in acetylacetone, 297.45 K
Endpoint: solubility (mole fraction)

Prompt line: Need solubility (mole fraction) of `Cn1cc[n+](CCC[n+]2ccn(C)c2)c1.F[P-](F)(F)(F)(F)F.F[P-](F)(F)(F)(F)F` , thanks.
Response line: 0.0012

----------
# Stated Conditions: in water, 297.65 K
Endpoint: solubility (mole fraction)
Give your answer as a number; write no unit.

Prompt line: Need solubility (mole fraction) of `Cn1cc[n+](CCC[n+]2ccn(C)c2)c1.F[P-](F)(F)(F)(F)F.F[P-](F)(F)(F)(F)F` , thanks.
Response line: 0.000137

----------
# Stated Conditions: in acetone, 321.15 K
Endpoint: solubility (mole fraction)

Prompt line: Need solubility (mole fraction) of `Cn1cc[n+](CCC[n+]2ccn(C)c2)c1.F[P-](F)(F)(F)(F)F.F[P-](F)(F)(F)(F)F` , thanks.
Response line: 0.0772

----------
# Stated Conditions: in cyclohexanone, 303.15 K
Endpoint: solubility (mole fraction)
Give your answer as a number; write no unit.

Prompt line: Need solubility (mole fraction) of `Cn1cc[n+](CCC[n+]2ccn(C)c2)c1.F[P-](F)(F)(F)(F)F.F[P-](F)(F)(F)(F)F` , thanks.
Response line: 0.000443

----------
# Stated Conditions: in water, 322.65 K
Endpoint: solubility (mole fraction)

Prompt line: Need solubility (mole fraction) of `Cn1cc[n+](CCC[n+]2ccn(C)c2)c1.F[P-](F)(F)(F)(F)F.F[P-](F)(F)(F)(F)F` , thanks.
Response line: 0.000611

----------
# Stated Conditions: in cyclohexanone, 289.65 K
Endpoint: solubility (mole fraction)
Give your answer as a number; write no unit.

Prompt line: Need solubility (mole fraction) of `Cn1cc[n+](CCC[n+]2ccn(C)c2)c1.F[P-](F)(F)(F)(F)F.F[P-](F)(F)(F)(F)F` , thanks.
Response line: 0.000151

----------
# Stated Conditions: in acetophenone, 333.15 K
Endpoint: solubility (mole fraction)

Prompt line: Need solubility (mole fraction) of `Cn1cc[n+](CCC[n+]2ccn(C)c2)c1.F[P-](F)(F)(F)(F)F.F[P-](F)(F)(F)(F)F` , thanks.
Response line: 0.000996

----------
# Stated Conditions: in 2-butanone, 335.25 K
Endpoint: solubility (mole fraction)
Give your answer as a number; write no unit.

Prompt line: Need solubility (mole fraction) of `Cn1cc[n+](CCC[n+]2ccn(C)c2)c1.F[P-](F)(F)(F)(F)F.F[P-](F)(F)(F)(F)F` , thanks.
Response line: 0.00913

----------
# Stated Conditions: in cyclohexanone, 313.25 K
Endpoint: solubility (mole fraction)
Give your answer as a number; write no unit.

Prompt line: Need solubility (mole fraction) of `Cn1cc[n+](CCC[n+]2ccn(C)c2)c1.F[P-](F)(F)(F)(F)F.F[P-](F)(F)(F)(F)F` , thanks.
Response line: 0.000852

----------
# Stated Conditions: in water, 304.75 K
Endpoint: solubility (mole fraction)
Give your answer as a number; write no unit.

Prompt line: Need solubility (mole fraction) of `Cn1cc[n+](CCC[n+]2ccn(C)c2)c1.F[P-](F)(F)(F)(F)F.F[P-](F)(F)(F)(F)F` , thanks.
Response line: 0.000216

----------
# Stated Conditions: in 2-butanone, 303.15 K
Endpoint: solubility (mole fraction)
Give your answer as a number; write no unit.

Prompt line: Need solubility (mole fraction) of `Cn1cc[n+](CCC[n+]2ccn(C)c2)c1.F[P-](F)(F)(F)(F)F.F[P-](F)(F)(F)(F)F` , thanks.
Response line: 0.00458

----------
# Stated Conditions: in acetophenone, 293.15 K
Endpoint: solubility (mole fraction)
Give your answer as a number; write no unit.

Prompt line: Need solubility (mole fraction) of `Cn1cc[n+](CCC[n+]2ccn(C)c2)c1.F[P-](F)(F)(F)(F)F.F[P-](F)(F)(F)(F)F` , thanks.
Response line: 0.000461
